Entry source: paper PMC4750701

Experiment: Cytotoxicity in primary human hepatocytes, 5 days
Conditions: human, primary human hepatocytes
ENDPOINT LABEL: CC50 at 5 days

> print(dat)
                                   compound  endpoint.label  experimental.result
1  [N-]=[N+]=N[C@]1(CO)O[C@@H](n2ccc(N)nc2=O)[C@H](O)[C@@H]1O  CC50 at 5 days             > 100 µM
2  C[C@@]1(F)[C@H](O)[C@@H](CO)O[C@H]1n1ccc(N)nc1=O  CC50 at 5 days             > 100 µM
3  O=C(N[C@H](CO)[C@H](O)c1ccc([N+](=O)[O-])cc1)C(Cl)Cl  CC50 at 5 days             > 100 µM
4  CCOc1nc(N)nc2c1ncn2[C@@H]1O[C@@H]2COP(=O)(OC(C)C)O[C@H]2[C@@]1(C)F (stereo partly drawn)  CC50 at 5 days             > 100 µM
5  COc1ccc(C[C@H](N)C(=O)N[C@H]2[C@@H](O)[C@H](n3cnc4c(N(C)C)ncnc43)O[C@@H]2CO)cc1  CC50 at 5 days               1.9 µM
6  C[C@@]1(O)[C@H](O)[C@@H](CO)O[C@H]1n1ccc(N)nc1=O  CC50 at 5 days             > 100 µM

====

Listing of recorded log10(CC50 at 5 days) by entry.
System: mitochondrial DNA-encoded cytochrome c oxidase (COX-1; complex IV) protein level
Experiment: Mitochondrial protein synthesis assay (COX-1, MitoBiogenesis in-cell ELISA) in PC-3 cells
Format: cell-based, human
Details: human; PC-3 cells, COX-1, 5 days; read-out: Mean CC50 ± SD causing Mitochondrial toxicity: Protein synthesis
ENDPOINT LABEL: log10(CC50 at 5 days) (log10 of the value in µM)

> print(dat)
                                        smi  experimental.result
1  COc1ccc(C[C@H](N)C(=O)N[C@H]2[C@@H](O)[C@H](n3cnc4c(N(C)C)ncnc43)O[C@@H]2CO)cc1                -0.92
2  [N-]=[N+]=N[C@]1(CO)O[C@@H](n2ccc(N)nc2=O)[C@H](O)[C@@H]1O                 1.04
3  C[C@@]1(F)[C@H](O)[C@@H](CO)O[C@H]1n1ccc(N)nc1=O                 1.85
4  O=C(N[C@H](CO)[C@H](O)c1ccc([N+](=O)[O-])cc1)C(Cl)Cl                 0.41
5  C[C@@]1(O)[C@H](O)[C@@H](CO)O[C@H]1n1ccc(N)nc1=O                 1.70

====

Listing of recorded IC50 by entry.
Biological target: recombinant human PolRMT (Homo sapiens, UniProt O00411)
Construct: purchased Enzymax (Lexington, KY)
Sequence (O00411 42-1230): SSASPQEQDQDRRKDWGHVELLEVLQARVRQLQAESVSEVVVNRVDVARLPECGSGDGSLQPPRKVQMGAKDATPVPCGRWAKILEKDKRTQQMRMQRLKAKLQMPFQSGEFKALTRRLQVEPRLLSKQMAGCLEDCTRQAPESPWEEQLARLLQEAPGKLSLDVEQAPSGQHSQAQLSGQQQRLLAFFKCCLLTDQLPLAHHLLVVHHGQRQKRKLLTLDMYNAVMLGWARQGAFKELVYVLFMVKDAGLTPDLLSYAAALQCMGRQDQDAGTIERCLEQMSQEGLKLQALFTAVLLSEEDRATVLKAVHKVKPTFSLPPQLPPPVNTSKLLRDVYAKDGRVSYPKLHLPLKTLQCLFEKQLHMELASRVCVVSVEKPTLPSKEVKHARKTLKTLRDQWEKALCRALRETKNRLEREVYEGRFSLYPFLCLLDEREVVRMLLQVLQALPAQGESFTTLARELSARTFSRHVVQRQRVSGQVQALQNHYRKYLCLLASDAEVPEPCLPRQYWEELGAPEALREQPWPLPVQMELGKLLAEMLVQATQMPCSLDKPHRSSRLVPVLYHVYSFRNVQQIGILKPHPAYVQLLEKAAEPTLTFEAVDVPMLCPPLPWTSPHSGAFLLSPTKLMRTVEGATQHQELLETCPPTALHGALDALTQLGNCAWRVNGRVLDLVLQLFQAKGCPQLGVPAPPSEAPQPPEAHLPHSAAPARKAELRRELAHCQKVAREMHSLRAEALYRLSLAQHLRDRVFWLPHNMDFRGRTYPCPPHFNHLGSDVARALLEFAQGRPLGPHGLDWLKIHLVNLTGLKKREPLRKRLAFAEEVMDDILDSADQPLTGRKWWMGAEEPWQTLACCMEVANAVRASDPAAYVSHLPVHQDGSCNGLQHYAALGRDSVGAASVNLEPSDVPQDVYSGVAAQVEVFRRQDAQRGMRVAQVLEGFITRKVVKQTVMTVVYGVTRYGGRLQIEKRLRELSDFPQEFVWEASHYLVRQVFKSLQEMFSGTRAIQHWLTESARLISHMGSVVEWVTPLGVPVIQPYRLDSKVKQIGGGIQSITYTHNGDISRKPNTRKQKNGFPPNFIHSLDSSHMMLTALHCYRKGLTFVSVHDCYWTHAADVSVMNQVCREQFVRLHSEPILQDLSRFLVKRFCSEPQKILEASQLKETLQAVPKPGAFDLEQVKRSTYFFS
Experiment: Inhibition of PolRMT-catalyzed RNA synthesis
Type: biochemical
Settings: triphosphate form of the compound tested (Table 4); read-out: Mean IC50 ± SD for PolRMT

COMPOUND	UNITS	OP	IC50
CCOc1nc(N)nc2c1ncn2[C@@H]1O[C@@H]2COP(=O)(OC(C)C)O[C@H]2[C@@]1(C)F (some centres unmarked) [PSI-938]	µM	>	500
C[C@@]1(F)[C@H](O)[C@@H](CO)O[C@H]1n1ccc(N)nc1=O [PSI-6130]	µM	>	500
COc1nc(N)nc2c1ncn2[C@@H]1O[C@H](COP(=O)(N[C@@H](C)C(=O)OCC(C)(C)C)Oc2cccc3ccccc23)[C@@H](O)[C@@]1(C)O (some centres unmarked) [BMS-986094]	µM	=	52
C[C@@]1(O)[C@H](O)[C@@H](CO)O[C@H]1n1ccc(N)nc1=O [2′CMeC, 2′-C-methyl (2′CMe) cytidine]	µM	=	230
Nc1nc2c(ncn2[C@@H]2O[C@H](COP(=O)(O)OP(=O)(O)OP(=O)(O)O)C[C@H]2O)c(=O)[nH]1 [3′deoxyGTP]	µM	=	4.2
